Values were extracted from BindingDB's records for doi:10.7270/Q2VX0F3D.

SYSTEM: Corticotropin-releasing factor-binding protein (Homo sapiens, UniProt P24387)
ASSAY_PROTOCOL: activators of CRF receptor 2 with binding protein – uHTS hits, confirmation (AID 602473)
pEC50: −log10 of the molar value.
MEASURE_NAME: pEC50

Solved entries (count: 2):
COMPOUND	pEC50
Cc1c(Cl)ccc2c1NC(=O)C21NC(CCC(N)=O)c2c1c(O)n(-c1ccc(Cl)cc1)c2O (configuration not stated)	< 4.28
COc1ccc(Cn2cc(O)n(-c3cccc(Cl)c3)c2=S)cc1OC	< 4.28

So what does the record say about pEC50 for `N#CCSc1nnc(CNc2ccc(F)cc2)o1` ?
< 4.28

Do the same for `Cc1ccc2oc(=O)c(CC(=O)c3cccs3)nc2c1` please
5.31

Can you handle N#CC(C(=O)Cc1cccc2ccccc12)c1nc2ccccc2s1 (configuration not stated) next?
5.50

Another compound to look at: `CCOC(=O)c1c(NC=C2C(=O)NC(=S)NC2=O)sc2c1CCC2`
< 4.28

----------
SYSTEM: Corticotropin-releasing factor-binding protein (Homo sapiens, UniProt P24387)
ASSAY_PROTOCOL: activators of CRF receptor 2 with binding protein – uHTS hits, confirmation (AID 602473)
pEC50: −log10 of the molar value.
MEASURE_NAME: pEC50

Some compounds with recorded pEC50:
COMPOUND	pEC50
COc1cc(C2c3c(-c4ccccn4)n[nH]c3OC(=N)C2C#N)cc(OC)c1OC (stereo not given)	< 4.28
Cc1noc(NS(=O)(=O)c2ccc(N=CCC(=O)c3cccc4ccccc34)cc2)c1C	< 4.28
Nc1ccccc1Sc1cc(O)n(-c2ccc3c(c2)OCO3)c1O [SMR000459840]	< 4.28

Query: pEC50; subject: `CCCCN(C(=O)c1ccc2c(c1)S(=O)(=O)NC1=CCCCCN12)c1c(N)n(CCCC)c(=O)[nH]c1=O`
< 4.28

Same for CC(=CN=Nc1nc(C)cc(C)n1)Cc1ccc(C(C)C)cc1 [SMR000146220]
< 4.28

Input N#CC(C(=O)c1cccc(F)c1)c1nc2ccccc2s1 (stereo not given)
< 4.28

What do you get for COc1cccc(C2C(C(=O)c3ccc(C)o3)C(=O)C(=O)N2CCN2CCOCC2)c1OC (stereo not given) [SMR000665042] ?
< 4.28

Try this compound next: CN1c2ccccc2C(=O)C(C(=S)Nc2ccc(Cl)cc2)S1(=O)=O (stereo not given)
< 4.28

Next up: COc1ccc(C(C)N=Nc2ccc([N+](=O)[O-])cc2S(=O)(=O)Nc2ccccc2C(=O)O)c(OC)c1 (stereo not given) [MLS002249507]
4.41

Please give the result for `CCNC(=S)N(CCc1ccc(S(N)(=O)=O)cc1)c1cc(O)n(-c2ccccc2)c1O` too.
4.73

----------
SYSTEM: Corticotropin-releasing factor-binding protein (Homo sapiens)
ASSAY_PROTOCOL: activators of CRF receptor 2 with binding protein – uHTS hits, confirmation (AID 602473)
pEC50: −log10 of the molar value.
MEASURE_NAME: pEC50

Solved cases (4 shown):
COMPOUND	pEC50
COc1ccc(-c2ccc(C3c4c(n[nH]c4C)OC(=N)C3C#N)o2)cc1 (stereo not given)	5.00
COC(=O)C1=Nc2nnnn2C(c2ccc(O)c(OC)c2)C1C(=O)c1ccccc1 (stereo not given) [SMR000020111]	< 4.28
O=C(Nn1c(O)csc1=S)c1cccnc1 [MLS000780148]	< 4.28
CCOC(=O)C1=C(C)N=C(SCC(=O)OC)C(C#N)C1c1ccc(C(=O)OC)cc1 (stereo not given) [MLS000039154]	< 4.28

I'd like to know its pEC50. The compound in question is N#CC(C(=O)COC(=O)c1ccccc1O)c1nc2ccccc2s1 (stereo not given)
< 4.28

----------
SYSTEM: Corticotropin-releasing factor-binding protein (Homo sapiens, UniProt P24387)
Sequence (P24387 whole entry): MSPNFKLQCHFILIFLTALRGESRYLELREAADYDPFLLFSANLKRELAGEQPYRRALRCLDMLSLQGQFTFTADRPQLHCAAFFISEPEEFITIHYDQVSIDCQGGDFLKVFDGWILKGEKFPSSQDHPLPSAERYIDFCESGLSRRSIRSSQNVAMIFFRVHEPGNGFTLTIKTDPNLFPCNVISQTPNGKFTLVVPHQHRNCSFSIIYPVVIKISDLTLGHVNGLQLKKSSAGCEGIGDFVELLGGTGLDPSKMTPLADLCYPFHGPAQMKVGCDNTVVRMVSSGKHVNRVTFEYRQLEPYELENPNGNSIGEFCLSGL
ASSAY_PROTOCOL: activators of CRF receptor 2 with binding protein – uHTS hits, confirmation (AID 602473)
We begin with a simple list: items and their reported EC50.

// below: answered molecules
MOLECULE	SYSTEM	EC50
COC(=O)C1=C(C)NC(=O)C1=CNc1ccc(Oc2ccccc2)cc1	Corticotropin-releasing factor-binding protein (Homo sapiens, UniProt P24387)	> 53 µM
Cc1ccc2oc(=O)c(CC(=O)c3sc(C)nc3C)nc2c1	Corticotropin-releasing factor-binding protein (Homo sapiens, UniProt P24387)	7.67 µM
Clc1ccc(C2=Nc3ncnn3C(c3ccco3)C2)cc1 (stereo not given)	Corticotropin-releasing factor-binding protein (Homo sapiens, UniProt P24387)	8.29 µM
O=C1CC(c2ccccc2)C(c2ccccc2)C1=O (stereo not given)	Corticotropin-releasing factor-binding protein (Homo sapiens, UniProt P24387)	> 53 µM

Can you look up the measured EC50 of `O=C1C=Cc2cc(=C3C=CCC=N3)c(=O)oc2=C1CN1CCN(CCO)CC1` for me?
6.05 µM

----------
Parameter pEC50: see the listing below.
SYSTEM: Corticotropin-releasing factor-binding protein (Homo sapiens, UniProt P24387)
ASSAY_PROTOCOL: activators of CRF receptor 2 with binding protein – uHTS hits, confirmation (AID 602473)
pEC50: −log10 of the molar value.

See these solved cases before continuing.
COMPOUND	READOUT_VALUE
Cc1ccc(C2CC(c3ccccc3)=Nc3nc(-n4c(O)ccc4O)nn32)cc1 (stereo not given)	< 4.28
O=C(c1ccccc1)c1[nH]n(-c2ccccc2)c2c(O)n(-c3ccccc3)c(=O)c1-2	4.84
CC1(C)CC(=O)C(=CNc2ccc(C(=O)c3ccccc3)cc2NC=C2C(=O)CC(C)(C)CC2=O)C(=O)C1	< 4.28
C=CCOC(=O)C1C(C)=NC2(O)c3ccccc3C(=O)C12O (stereo not given)	< 4.28

Query: pEC50; subject: Cc1cc(=O)oc2c1ccc1oc(C(N=O)c3ccccc3)c(C)c12 (stereo not given)
< 4.28

----------
SYSTEM: Corticotropin-releasing factor-binding protein (Homo sapiens, UniProt P24387)
ASSAY_PROTOCOL: activators of CRF receptor 2 with binding protein – uHTS hits, confirmation (AID 602473)
MEASURE_NAME: EC50

Example results:
COMPOUND	SYSTEM	READOUT_VALUE
COC(=O)C1=C(C)NC(=O)C1=CNc1ccc(C(C)C)cc1	Corticotropin-releasing factor-binding protein (Homo sapiens, UniProt P24387)	> 53 µM
Cc1ccc(CSC(=Nc2ccc(F)cc2)C(C#N)C#N)cc1	Corticotropin-releasing factor-binding protein (Homo sapiens, UniProt P24387)	> 53 µM
COc1ccc(C2c3ccc(O)cc3OC(=N)C2C#N)cc1C (stereo not given)	Corticotropin-releasing factor-binding protein (Homo sapiens, UniProt P24387)	> 53 µM
COC(=O)C1=C(C)N=C(C)C(C(=O)OC)C1/C=C/c1ccccc1 (stereo not given)	Corticotropin-releasing factor-binding protein (Homo sapiens, UniProt P24387)	> 53 µM
Nc1ccc2c(c1)C(N=O)c1ccccc1-2 (stereo not given)	Corticotropin-releasing factor-binding protein (Homo sapiens, UniProt P24387)	> 53 µM

API: value(readout=EC50, system=Corticotropin-releasing factor-binding protein (Homo sapiens, UniProt P24387)) for record CCOc1ccc(C2=Nc3ncnn3C(c3ccccc3)C2)cc1 (stereo not given)
> 53 µM

Then COc1ccc(C2=Nc3nnnn3C(c3cccc(OC)c3)C2)cc1 (stereo not given) ?
> 53 µM

And what about the compound COc1ccc(C(=O)C2C(=O)C(=O)N(CCN(C)C)C2c2cccnc2)cc1C (stereo not given) ?
> 53 µM

Can you check CC(=O)C1C(C)=NC(=S)NC1c1cc([N+](=O)[O-])ccc1O (stereo not given) next?
> 53 µM

Would you kindly repeat that for COc1ccccc1C1C(C(=O)c2sc(C)nc2C)C(=O)C(=O)N1CCN1CCOCC1 (stereo not given) ?
> 53 µM

Okay, and Cn1c(SCC(=O)N/N=C/C2C=C([N+](=O)[O-])C=CC2=O)nnc1-c1ccccc1 (stereo not given) ?
> 53 µM

And `Cc1ccc2oc(=O)c(CC(=O)c3ccccc3)nc2c1` ?
12.1 µM

Please answer likewise for CC(=O)C1C(=O)C(=O)N(c2nccs2)C1c1ccccc1 (stereo not given)
> 53 µM

Next record, please: `C=C1C(c2ccc(Cl)cc2)=[N+](O)C(c2ccccc2)=CN1[O-]`
> 53 µM

CCOc1ccc(C2CC(c3ccc(C)cc3)=Nc3nnnn32)cc1 (stereo not given) , same question.
> 53 µM

Also `CCCCCCc1cc2cc(C(=O)NCc3ccccc3)c(N)oc-2cc1=O` ?
4.2 µM

Follow-up entry: `COc1ccccc1-n1c(O)c2n(-c3ccc(C)cc3)[nH]c(C(=O)c3ccccc3)c-2c1=O`
5.27 µM

Continue with `Nc1[nH]c(=O)sc1C=C1C=CC(=O)C=C1`
> 53 µM

What would you report for `Cc1ccc(C)c2sc(NC(=O)c3ccc(-n4c(O)ccc4O)cc3)nc12` ?
> 53 µM
